This collection of values is drawn from the supplement of paper PMC10899765.

# Tested on: MCF10A
# PROCEDURE SUMMARY: percent viability (nuclei count relative to siNT); higher = more viable cells
# MEASUREMENT CONDITIONS: 20 nM; 72 h
# note: boundary value 80% maps to f; percent viability below it maps to t

[Q] Field: below-cutoff. Rule: recorded percent viability strictly less than 80%. Subject: GGCCAGCCACCAGGAGGGCUG [hsa-miR-3194-5p]
[A] t

[Q] Next: AACGGCAAUGACUUUUGUACCA [hsa-miR-548al]
[A] t

[Q] Moving on to the next sequence: CAGGGCCAGGCACAGAGUAAG [hsa-miR-6895-5p]
[A] t

[Q] What do we get for CAAAGAAUUCUCCUUUUGGGCU [hsa-miR-186-5p] ?
[A] t

[Q] Okay, and ACUGGGAAGAGGAGCUGAGGGA [hsa-miR-4646-5p] ?
[A] t

[Q] What about CCCAUGCCUCCUGCCGCGGUC [hsa-miR-6872-3p] ?
[A] t

[Q] Try this sequence next: AAUAUAACACAGAUGGCCUGU [hsa-miR-410]
[A] f

[Q] Please give the result for UAUGCAUUGUAUUUUUAGGUCC [hsa-miR-586] too.
[A] f

[Q] Same again, this time with AUGCCUCCCCCGGCCCCGCAG [hsa-miR-6836-3p]
[A] t

[Q] Then AGCCUGGAAGCUGGAGCCUGCAGU [hsa-miR-1254] ?
[A] t

[Q] Another sequence: UGAGAACUGACAAAUGUGGUAGG [hsa-miR-7153-5p]
[A] t

[Q] Next entry: UUGAGGGGAGAAUGAGGUGGAGA [hsa-miR-6734-5p]
[A] t

[Q] Same question for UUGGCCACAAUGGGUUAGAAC [hsa-miR-588] please.
[A] t

[Q] Moving on to UCUGCAAGUGUCAGAGGCGAGG [hsa-miR-2276]
[A] f

[Q] Next sequence: CCAGUUUUCCCAGGAUU [hsa-miR-4328]
[A] f

[Q] Thanks! And AGAGUUAACUCAAAAUGGACUA [hsa-miR-4424] ?
[A] t

[Q] What do we get for UUAAUUUUUUGUUUCGGUCACU [hsa-miR-4775] ?
[A] f

[Q] Field entry: GUGGGUAGGGUUUGGGGGAGAGCG [hsa-miR-1229-5p]
[A] t

[Q] Can you check CUUUCAGUCGGAUGUUUACAGC [hsa-miR-30e-3p] next?
[A] f

[Q] How about this sequence: UAAUACUGCCUGGUAAUGAUGA [hsa-miR-200b-3p]
[A] f

[Q] What do you have for GCCCUCUGUCACCUUGCAGACG [hsa-miR-2276-5p] ?
[A] f

[Q] CAGGGAGGCGCUCACUCUCUGCU [hsa-miR-4756-5p] ?
[A] f

[Q] UUGAGAAUGAUGAAUCAUUAGG [hsa-miR-580] ?
[A] f

[Q] # repeat for CACUGUGGGUACAUGCU [hsa-miR-4318]
[A] t

[Q] Item: CUCUUGAGGGAAGCACUUUCUGU [hsa-miR-526b-5p]
[A] t

[Q] # iterate: ACCAGGAGGCUGAGGCCCCU [hsa-miR-665]
[A] t

[Q] Same question for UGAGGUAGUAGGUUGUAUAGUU [hsa-let-7a-5p] please.
[A] t

[Q] Also CCCAGUGUUCAGACUACCUGUUC [hsa-miR-199a-5p] , if possible.
[A] t

[Q] Thanks! And GCUAAGGAAGUCCUGUGCUCAG [hsa-miR-4521] ?
[A] f

[Q] Subsequent entry: CCAGUGUGGCUCAGCGAG [hsa-miR-4302]
[A] t

[Q] And GUGUGACCACCGUUCCUGCAG [hsa-miR-6808-3p] ?
[A] t

[Q] Check ACACCCUCUUUCCCUACCGCC [hsa-miR-6865-3p] too.
[A] f

[Q] Further, for AGAGUUGAGUCUGGACGUCCCG [hsa-miR-219-1-3p] ?
[A] f

[Q] Also UAGUUCUUCCCUUUGCCCAAUU [hsa-miR-5584-3p] , if possible.
[A] t

[Q] And UUAACUCCUUUCACACCCAUGG [hsa-miR-4764-3p] ?
[A] f

[Q] Same lookup for CAAGGGACCAAGCAUUCAUUAU [hsa-miR-4475] , please.
[A] t

[Q] For UUCAGAUCCCAGCGGUGCCUCU [hsa-miR-5100] then?
[A] t

[Q] Then this sequence: AGAAAGGUGGAGGGGUUGUCAGA [hsa-miR-6730-5p]
[A] t

[Q] UUUUAAGGACACUGAGGGAUC [hsa-miR-7856-5p] ?
[A] t

[Q] Repeat for the following sequence: CAAACCACACUGUGGUGUUAGA [hsa-miR-497-3p]
[A] t

[Q] Next up: CUCUCCCUCUUUACCCACUAG [hsa-miR-6867-3p]
[A] t

[Q] Input AAUGUUGGAAUCCUCGCUAGAG [hsa-miR-4781-3p]
[A] t

[Q] Also, UGAUUGUCUUCAUAUCUAGAAC [hsa-miR-4782-3p] please.
[A] t

[Q] Here is the next sequence: CCUGCAGCGACUUGAUGGCUUCC [hsa-miR-1184]
[A] t

[Q] Also, GCAGGUGCUCACUUGUCCUCCU [hsa-miR-764] please.
[A] t

[Q] Next sequence: CUUCUCUUCUCUCCUUCCCAG [hsa-miR-6809-3p]
[A] t

[Q] Next sequence: AGGCUGUGAUGCUCUCCUGAGCCC [hsa-miR-7974]
[A] t

====

# Test system: MCF10A
# PROCEDURE SUMMARY: one-nucleolus phenotype percent effect (relative to siNT 0% and siNOL11 100%); higher = more cells with one nucleolus (ribosome biogenesis inhibition)
# MEASUREMENT CONDITIONS: 20 nM; 72 h
READOUT NAME: one-nucleolus phenotype percent effect (%)
Report only the number, with the unit % understood.

[Q] Return reported one-nucleolus phenotype percent effect; argument: CAGGUAGAUAUUUGAUAGGCAU [hsa-miR-3927-3p]
[A] -16.5

[Q] Same question, UGGUAGAGCUGAGGACA [hsa-miR-4451] this time
[A] -7.47

[Q] Same question for GAGAGCAGUGUGUGUUGCCUGG [hsa-miR-2278] please.
[A] 40.5

[Q] Subsequent entry: UUGGGGGUGAGGUUGGUGUCUGG [hsa-miR-6751-5p]
[A] 13.4

[Q] Okay, and AGCCAAGUGGAAGUUACUUUA [hsa-miR-4480] ?
[A] 33.8

[Q] Also check CUAGGUGGGGGGCUUGAAGC [hsa-miR-6802-5p]
[A] 9.83

[Q] Next: CAAAAACCGCAAUUACUUUUGCA [hsa-miR-548h-3p]
[A] -6.67

[Q] Follow-up entry: AGGGACGGGACGCGGUGCAGUG [hsa-miR-92b-5p]
[A] 2.12

[Q] Similarly, UGGAGAUCCAGUGCUCGCCCGAU [hsa-miR-4683] ?
[A] 24.4

[Q] Param item: GACACUAGGCAUGUGAGUGAUU [hsa-miR-4704-5p]
[A] -20.2

[Q] Here is the next sequence: GAUCCCUUUAUCUGUCCUCUAG [hsa-miR-6866-3p]
[A] -33.5

[Q] Repeat for the following sequence: UAGGAGCUCAACAGAUGCCUGUU [hsa-miR-3139]
[A] 84.1

[Q] Now try UGAGGAUAUGGCAGGGAAGGGGA [hsa-miR-3679-5p] .
[A] -24.2

[Q] Do the same for GUGAACGGGCGCCAUCCCGAGG [hsa-miR-887] please
[A] -1.47

[Q] Consider next the sequence CCUAAUUUGAACACCUUCGGUA [hsa-miR-4735-5p] in the same way.
[A] -11.3

[Q] Also check GAGGGCGGGUGGAGGAGGA [hsa-miR-3141]
[A] 72.7

[Q] Try this sequence too: AGGUAGACUGGGAUUUGUUGUU [hsa-miR-3529-5p]
[A] 27.4

[Q] Again, but for CCCGGACAGGCGUUCGUGCGACGU [hsa-miR-3687]
[A] -20.6

[Q] Next sequence up: ACAAAGUGCUUCCCUUUAGAGUGU [hsa-miR-520g]
[A] -7.99

[Q] // repeat for UGGGCCAUGCAUUUCUAGAACU [hsa-miR-6508-3p] and report
[A] 41.6

[Q] Moving on to the next sequence: UUGUGGGGUUGGAGAGCUGGCUG [hsa-miR-6796-5p]
[A] 45.3

[Q] Follow-up entry: CCAGCCACGGACUGAGAGUGCAU [hsa-miR-4691-3p]
[A] -11.4

[Q] Try the sequence UAGUGGAUGAUGCACUCUGUGC [hsa-miR-3681-5p]
[A] 15.8

[Q] Consider next the sequence CGGGGCGGCAGGGGCCUC [hsa-miR-3196] in the same way.
[A] 66

[Q] # repeat for GGCAGGAGGGCUGUGCCAGGUUG [hsa-miR-4722-5p]
[A] -6.08

[Q] Would you kindly repeat that for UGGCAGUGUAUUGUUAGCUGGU [hsa-miR-449a] ?
[A] 36.9

[Q] Request: CCGGUUCCAGUCCCUGGAG [hsa-miR-6070]
[A] 16.9

[Q] Now consider UGUCCUCUAGGGCCUGCAGUCU [hsa-miR-3909] and answer again.
[A] 93.1

[Q] Quick one: CAAAACGUGAGGCGCUGCUAU [hsa-miR-424-3p]
[A] -5.82

[Q] Then what about the sequence UAUGGCUUUUUAUUCCUAUGUGA [hsa-miR-135a-5p] ?
[A] -3.65

[Q] # iterate: AAUAGCUCAGAAUGUCAGUUCUG [hsa-miR-7705]
[A] 2.1

[Q] Further, for GCCCCGGCGCGGGCGGGUUCUGG [hsa-miR-4707-5p] ?
[A] -25

[Q] Try the sequence AAGGGGGAAGGAAACAUGGAGA [hsa-miR-4716-3p]
[A] 21.6

[Q] Next sequence up: UCUGAGUUCCUGGAGCCUGGUCU [hsa-miR-4682]
[A] -20

[Q] // repeat for AUAUUAUUAGCCACUUCUGGAU [hsa-miR-4795-3p] and report
[A] 3.49

[Q] Also CAAAUAAUACCACAGUGGGUGU [hsa-miR-5692a] , if possible.
[A] -17.8

[Q] Follow-up item: GGCUGAGUGGGGUUCUGACUCC [hsa-miR-8077]
[A] -3.93

[Q] What do you get for CAAGGAGACGGGAACAUGGAGC [hsa-miR-4428] ?
[A] -16.1

[Q] Could you do the same for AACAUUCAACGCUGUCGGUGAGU [hsa-miR-181a-5p] , please?
[A] 2.31

[Q] Do the same for GGCGGAGGGAAGUAGGUCCGUUGGU [hsa-miR-658] please
[A] -9.25

[Q] Also, AAGUUGGCUGCAGUUAAGGUGG [hsa-miR-4715-5p] please.
[A] -2.6

[Q] What about this sequence? CCUAGACACCUCCAGUUC [hsa-miR-4305]
[A] -1.35

[Q] And the next one, AGUGGACCGAGGAAGGAAGGA [hsa-miR-4800-5p] ?
[A] 2.75

[Q] For CCGCUCUUCCCCUGACCCCAG [hsa-miR-6812-3p] then?
[A] -35.5

[Q] Entry to check: UAGGACUAGAUGUUGGAAUUA [hsa-miR-4759]
[A] -7.56

[Q] Follow-up entry: AGAAGAUUGCAGAGUAAGUUCC [hsa-miR-4699-5p]
[A] 31.8

[Q] What would you report for AUUCUUCCUGCCCUGGCUCCAU [hsa-miR-6875-3p] ?
[A] -4.69

[Q] And for AUGGGUGAAUUUGUAGAAGGAU [hsa-miR-1262] ?
[A] 17.3
